target-entity: Tryptase, from human lung (human, UniProt Q15661 31-275, limits assumed)
Sequence (Q15661 31-275 limits assumed): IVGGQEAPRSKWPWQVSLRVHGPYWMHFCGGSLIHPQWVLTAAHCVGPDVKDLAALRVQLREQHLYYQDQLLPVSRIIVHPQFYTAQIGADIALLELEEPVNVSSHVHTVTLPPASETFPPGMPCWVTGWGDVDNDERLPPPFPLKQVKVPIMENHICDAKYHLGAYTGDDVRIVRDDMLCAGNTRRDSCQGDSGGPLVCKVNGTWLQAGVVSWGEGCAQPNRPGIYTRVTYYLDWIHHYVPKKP
test-description: cell-based or functional assay
Entries and their measured % inhibition at 100 µM follow.
Give just the numeric value; % need not be written.

ICTKSDPPYCR (HELM PEPTIDE1{I.C.T.K.S.D.P.P.Y.C.R.[dP].P}$PEPTIDE1,PEPTIDE1,2:R3-10:R3|PEPTIDE1,PEPTIDE1,1:R1-13:R2$$$V2.0; SMILES CC[C@H](C)[C@@H]1NC(=O)[C@@H]2CCCN2C(=O)[C@H]2CCCN2C(=O)[C@H](CCCNC(=N)N)NC(=O)[C@@H]2CSSC[C@H](NC1=O)C(=O)N[C@@H]([C@@H](C)O)C(=O)N[C@@H](CCCCN)C(=O)N[C@@H](CO)C(=O)N[C@@H](CC(=O)O)C(=O)N1CCC[C@H]1C(=O)N1CCC[C@H]1C(=O)N[C@@H](Cc1ccc(O)cc1)C(=O)N2) [Example 18]    88.3
XCTKSDPPICD (HELM PEPTIDE1{[O=C([C@@H](N[*:1])C1CCCCC1)[*:2]].C.T.K.S.D.P.P.I.C.D.[dP].P}$PEPTIDE1,PEPTIDE1,2:R3-10:R3|PEPTIDE1,PEPTIDE1,1:R1-13:R2$$$V2.0; SMILES CC[C@H](C)[C@@H]1NC(=O)[C@@H]2CCCN2C(=O)[C@@H]2CCCN2C(=O)[C@H](CC(=O)O)NC(=O)[C@H](CO)NC(=O)[C@H](CCCCN)NC(=O)[C@H]([C@@H](C)O)NC(=O)[C@@H]2CSSC[C@H](NC1=O)C(=O)N[C@@H](CC(=O)O)C(=O)N1CCC[C@@H]1C(=O)N1CCC[C@H]1C(=O)N[C@@H](C1CCCCC1)C(=O)N2) [Example 39]    34

response.value for FCTKSDPPICS (HELM PEPTIDE1{F.C.T.K.S.D.P.P.I.C.S.[dP].D}$PEPTIDE1,PEPTIDE1,2:R3-10:R3|PEPTIDE1,PEPTIDE1,1:R1-13:R2$$$V2.0; SMILES CC[C@H](C)[C@@H]1NC(=O)[C@@H]2CCCN2C(=O)[C@@H]2CCCN2C(=O)[C@H](CC(=O)O)NC(=O)[C@H](CO)NC(=O)[C@H](CCCCN)NC(=O)[C@H]([C@@H](C)O)NC(=O)[C@@H]2CSSC[C@H](NC1=O)C(=O)N[C@@H](CO)C(=O)N1CCC[C@@H]1C(=O)N[C@@H](CC(=O)O)C(=O)N[C@@H](Cc1ccccc1)C(=O)N2) [Example 47] (field: % inhibition at 100 µM) = 0

Notebook: FCTKSDPPICS (HELM PEPTIDE1{F.C.T.K.S.D.P.P.I.C.S.[dA].P}$PEPTIDE1,PEPTIDE1,2:R3-10:R3|PEPTIDE1,PEPTIDE1,1:R1-13:R2$$$V2.0; SMILES CC[C@H](C)[C@@H]1NC(=O)[C@@H]2CCCN2C(=O)[C@@H]2CCCN2C(=O)[C@H](CC(=O)O)NC(=O)[C@H](CO)NC(=O)[C@H](CCCCN)NC(=O)[C@H]([C@@H](C)O)NC(=O)[C@@H]2CSSC[C@H](NC1=O)C(=O)N[C@@H](CO)C(=O)N[C@H](C)C(=O)N1CCC[C@H]1C(=O)N[C@@H](Cc1ccccc1)C(=O)N2) [Example 49] , % inhibition at 100 µM read as 30.5

Kindly note the recorded % inhibition at 100 µM for RCTKSDPPICF (HELM PEPTIDE1{R.C.T.K.S.D.P.P.I.C.F.[dP].P}$PEPTIDE1,PEPTIDE1,2:R3-10:R3|PEPTIDE1,PEPTIDE1,1:R1-13:R2$$$V2.0; SMILES CC[C@H](C)[C@@H]1NC(=O)[C@@H]2CCCN2C(=O)[C@@H]2CCCN2C(=O)[C@H](CC(=O)O)NC(=O)[C@H](CO)NC(=O)[C@H](CCCCN)NC(=O)[C@H]([C@@H](C)O)NC(=O)[C@@H]2CSSC[C@H](NC1=O)C(=O)N[C@@H](Cc1ccccc1)C(=O)N1CCC[C@@H]1C(=O)N1CCC[C@H]1C(=O)N[C@@H](CCCNC(=N)N)C(=O)N2) [Example 75] , which is 0

binder ICTKSDPPQCR (HELM PEPTIDE1{I.C.T.K.S.D.P.P.Q.C.R.[dP].P}$PEPTIDE1,PEPTIDE1,2:R3-10:R3|PEPTIDE1,PEPTIDE1,1:R1-13:R2$$$V2.0; SMILES CC[C@H](C)[C@@H]1NC(=O)[C@@H]2CCCN2C(=O)[C@H]2CCCN2C(=O)[C@H](CCCNC(=N)N)NC(=O)[C@@H]2CSSC[C@H](NC1=O)C(=O)N[C@@H]([C@@H](C)O)C(=O)N[C@@H](CCCCN)C(=O)N[C@@H](CO)C(=O)N[C@@H](CC(=O)O)C(=O)N1CCC[C@H]1C(=O)N1CCC[C@H]1C(=O)N[C@@H](CCC(N)=O)C(=O)N2) [Example 55] , % inhibition at 100 µM observed: 90.4

Documented % inhibition at 100 µM of XCTASXPPQCY (HELM PEPTIDE1{[Nle].C.T.A.S.[Cha].P.P.Q.C.Y.[dP].P}$PEPTIDE1,PEPTIDE1,2:R3-10:R3|PEPTIDE1,PEPTIDE1,1:R1-13:R2$$$V2.0; SMILES CCCC[C@@H]1NC(=O)[C@@H]2CCCN2C(=O)[C@H]2CCCN2C(=O)[C@H](Cc2ccc(O)cc2)NC(=O)[C@@H]2CSSC[C@H](NC1=O)C(=O)N[C@@H]([C@@H](C)O)C(=O)N[C@@H](C)C(=O)N[C@@H](CO)C(=O)N[C@@H](CC1CCCCC1)C(=O)N1CCC[C@H]1C(=O)N1CCC[C@H]1C(=O)N[C@@H](CCC(N)=O)C(=O)N2) [Example 82] : 44.5
